- Read-out: Vascular cell adhesion molecule 1 (VCAM1), VCAM1 (gene 7412)
- procedure details: BSK_4H_VCAM1: BioMAP Diversity Plus: 4H Assay for Vascular cell adhesion molecule 1 (VCAM1) Biomarker Activity (AID 2283033)
- conditions used: primary human endothelial cells (HUVEC); actives raise or lower the signal
Calls of active or inactive are those of the source. How the source made its calls: active means hit-call score of the fitted dose curve at least 0.9, where 1 is the maximum; inactive means score below 0.9.
Response enum: active, inactive

Take a look at these entries with their results.
compound	class
CCCCC(C#N)(Cn1cncn1)c1ccc(Cl)cc1 (configuration not stated)	inactive
COP(=S)(OC)Oc1ccc([N+](=O)[O-])c(C)c1	inactive
CCOP(=S)(OCC)Oc1nc(Cl)n(C(C)C)n1	inactive
CC(C)C1(C)N=C(c2ncccc2C(=O)O)NC1=O (configuration not stated)	inactive

Input: Test call for this compound, please: C=C(C)CN(CC)c1c([N+](=O)[O-])cc(C(F)(F)F)cc1[N+](=O)[O-]
Output: inactive

Input: Then COC(=O)NC(=S)Nc1ccccc1NC(=S)NC(=O)OC ?
Output: active

Input: Then CCNC(=O)NC(=O)C(C#N)=NOC ?
Output: inactive

Input: Then O=C1C2CC=CCC2C(=O)N1SC(Cl)(Cl)Cl (configuration not stated) ?
Output: inactive

Input: Then CC1(C)CON(Cc2ccccc2Cl)C1=O ?
Output: inactive

* * *

- procedure details: LTEA_HepaRG_LDH_cytotoxicity: Cytotoxicity Assessment in the Life Technologies and Expression Analysis (LTEA) Assay (AID 2283563)
The source made the active and inactive calls. How the source made its calls: active means hit-call score of the fitted dose curve at least 0.9, where 1 is the maximum; inconclusive means response in the unintended direction; inactive means score below 0.9.
Response enum: active, inactive

Take a look at these entries with their results.
compound	class
CC(C)Oc1cccc(NC(=O)c2ccccc2C(F)(F)F)c1	inactive
Cc1ccc(N=CN(C)C=Nc2ccc(C)cc2C)c(C)c1	inactive
C=C(C)CN(CC)c1c([N+](=O)[O-])cc(C(F)(F)F)cc1[N+](=O)[O-]	inactive

Input: Test call for this compound, please: CCOP(=O)(OCC)Oc1nc(Cl)c(Cl)cc1Cl
Output: inactive

Input: Then O=C1C2CC=CCC2C(=O)N1SC(Cl)(Cl)Cl (configuration not stated) ?
Output: active

* * *

- procedure details: CCTE_Shafer_MEA_dev_correlation_coefficient_mean: CCTE's Neural Network Formation Assay for Mean Correlation Coefficient, Shafer Lab (AID 2284093)
Calls of active or inactive are those of the source. Rule for the calls: active = hit-call score of the fitted dose curve at least 0.9, where 1 is the maximum; inactive = score below 0.9.
Response enum: True (active), False (inactive)

Take a look at these entries with their results.
compound	class
CC(C)=CC1C(C(=O)OCc2coc(Cc3ccccc3)c2)C1(C)C (stereo unspecified)	False
CC1(C)C(C(=O)OC(C#N)c2cccc(Oc3ccccc3)c2)C1(C)C (stereo unspecified)	True
CCNC(=O)NC(=O)C(C#N)=NOC	False
COP(=S)(OC)SCn1nnc2ccccc2c1=O	True
CCOC(=O)C(C)OC(=O)c1cc(Oc2ccc(C(F)(F)F)cc2Cl)ccc1[N+](=O)[O-] (stereo unspecified)	False

In the following, a different compound is considered.
Input: Test call for this compound, please: N#CN=C1SCCN1Cc1ccc(Cl)nc1
Output: False

* * *

- procedure details: ATG_ISRE_CIS: Attagene CIS-FACTORIAL HepG2 Assay for human Interferon Regulatory Factor 1 (IRF1) binding to an Interferon-Stimulated Response Element (ISRE) (AID 2282948)
- conditions used: HepG2 ISRE cis-reporter (Attagene), mRNA transcription readout; actives raise or lower the signal
The source made the active and inactive calls. Rule for the calls: active = hit-call score of the fitted dose curve at least 0.9, where 1 is the maximum; inactive = score below 0.9.
Response enum: active, inactive

compound	class
Clc1nc(Cl)nc(Nc2ccccc2Cl)n1	inactive
CCN(CC)C(=O)C(C)Oc1cccc2ccccc12 (stereo not given)	inactive
COC(=O)N(C(=O)N1CO[C@@]2(C(=O)OC)Cc3cc(Cl)ccc3C2=N1)c1ccc(OC(F)(F)F)cc1	inactive
CS(=O)(=O)c1cc(C(F)(F)F)ccc1C(=O)c1cnoc1C1CC1	inactive
CC(C)N1C(=O)c2ccccc2NS1(=O)=O	inactive

Input: Test call for this compound, please: Nc1c(Cl)c(Cl)nc(C(=O)O)c1Cl
Output: inactive

Input: Then CC1(C)CCC(=Cc2ccc(Cl)cc2)C1(O)Cn1cncn1 (stereo not given) ?
Output: inactive

Input: Then CCCCC(C#N)(Cn1cncn1)c1ccc(Cl)cc1 (stereo not given) ?
Output: inactive

Input: Then CNC(=O)N(C)c1nnc(C(C)(C)C)s1 ?
Output: inactive
